# credit: the supplement of paper PMC10567573

B1: EHMT1 (parent)
chain: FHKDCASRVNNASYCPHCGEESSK

variants of: B1; test: protein stability index of a GFP-peptide fusion (GPS, HEK-293T) (PSI 1-6); higher = more stable; conditions: c terminus: a fixed tail appended;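 also: lentivirally expressed fusions sorted by FACS into six bins by GFP to DsRed ratio, PSI derived from sequencing read proportions per bin multiplied by bin number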
Quick rule for you: protein stability index at 4 or higher means y, lower means n.

>  <variant_identifier>
F1K

>  <classification>
y

$$$$
>  <variant_identifier>
C5M

>  <classification>
n

$$$$
>  <variant_identifier>
E20F

>  <classification>
n

$$$$
>  <variant_identifier>
F1G

>  <classification>
y

$$$$
>  <variant_identifier>
V9F

>  <classification>
n

$$$$
>  <variant_identifier>
F1R

>  <classification>
y

$$$$
>  <variant_identifier>
C18R

>  <classification>
n

$$$$
>  <variant_identifier>
E20C

>  <classification>
n

$$$$
>  <variant_identifier>
N10S

>  <classification>
n

$$$$
>  <variant_identifier>
Y14A

>  <classification>
n

$$$$
>  <variant_identifier>
D4P

>  <classification>
n

$$$$
